Provenance of the data: patent US5563164A

Entries and their IC50
- measured on: Human Cytosolic PLA2 (Homo sapiens)
- Sequence (P47712 1-749): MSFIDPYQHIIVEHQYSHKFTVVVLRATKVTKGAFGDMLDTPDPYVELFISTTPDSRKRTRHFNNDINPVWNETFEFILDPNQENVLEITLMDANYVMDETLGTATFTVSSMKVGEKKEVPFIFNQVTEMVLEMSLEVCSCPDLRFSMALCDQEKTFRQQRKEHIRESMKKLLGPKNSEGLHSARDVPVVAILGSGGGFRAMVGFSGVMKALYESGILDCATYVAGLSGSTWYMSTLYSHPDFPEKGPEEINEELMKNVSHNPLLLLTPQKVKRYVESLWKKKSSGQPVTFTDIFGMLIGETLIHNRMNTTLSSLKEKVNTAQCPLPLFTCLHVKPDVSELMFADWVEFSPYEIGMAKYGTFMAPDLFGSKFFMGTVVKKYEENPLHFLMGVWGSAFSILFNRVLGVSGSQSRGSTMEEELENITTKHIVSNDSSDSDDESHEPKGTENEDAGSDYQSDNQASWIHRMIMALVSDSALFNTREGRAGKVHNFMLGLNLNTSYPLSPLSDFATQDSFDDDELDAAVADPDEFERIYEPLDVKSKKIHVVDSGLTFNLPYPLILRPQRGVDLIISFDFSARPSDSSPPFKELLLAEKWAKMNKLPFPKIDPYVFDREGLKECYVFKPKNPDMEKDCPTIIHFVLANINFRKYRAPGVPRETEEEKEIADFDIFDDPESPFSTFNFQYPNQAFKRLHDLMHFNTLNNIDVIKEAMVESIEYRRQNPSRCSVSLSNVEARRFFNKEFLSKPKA
- protocol description: Inhibition of Cytosolic Phospholipase A2 (in vitro, [14C]PC/DG sonicated liposomes)
- condition context: 37° C., 15 minutes, pH 7.5, 1 mM calcium chloride

| compound | unit annotation | IC50 |
| --- | --- | --- |
| CCCc1c(OCCCOc2cc(O)c(OCC)cc2CC)ccc2c1OC(C(=O)O)CC2 (centres unmarked) [Example 12] | µM | 28 |
| CCc1cc(-c2ccc(F)cc2)c(O)cc1OCCCCOc1ccccc1CCC(=O)O [Example 9] | µM | 35 |
| CCCc1c(OCCCOc2cc(O)c(-c3ccc(F)cc3)cc2CC)cccc1Oc1ccccc1C(=O)O [Example 8] | µM | 12 |
| CCCc1c(OCCCOc2cc(O)c(C(C)=O)cc2CC)ccc2c1OC(C(=O)O)CC2 (centres unmarked) [Example 13] | µM | 13 |
| CCCc1c(OCCCOc2cc(O)c(C(C)=O)cc2CC)cccc1OC(CC)C(=O)O (centres unmarked) [Example 14] | µM | 14 |
| CCc1cc(CC)c(OCCCCCC(C)(C)c2nn[nH]n2)cc1O [Example 11] | µM | 54 |
| CCc1cc(-c2ccc(F)cc2)c(O)cc1OCCCOc1ccccc1CCC(=O)NS(=O)(=O)c1ccccc1 [Example 3] | µM | 17 |
| CCc1cc(C(C)=O)c(O)cc1OCCCCCC(C)(C)c1nn[nH]n1 [Example 10] | µM | 43 |
